Tested on: HT29 colon
test-details: NCI tumour cell line growth inhibition, 48 h; in the data active = GI50 below about 0.43 µM; inactive = the rest
Please answer using one outcome listed in y for active, n for inactive

Take a look at these entries with their results.
>  <compound>
CCOc1ccccc1-n1c(CN2CCN(C(=O)COc3ccc(CNCCCCCCN4C5CCCC4CC(OC(=O)Nc4cc(C)ccc4OC)C5)cc3)CC2)nc2ccccc2c1=O (stereo not drawn)

>  <group>
n

$$$$
>  <compound>
CCCCCCCC(=O)SCC/C=C/[C@@H]1CC(=O)NCc2cccc(n2)C2=N[C@@](C)(CS2)C(=O)N[C@@H](C(C)C)C(=O)N1

>  <group>
y

$$$$
>  <compound>
CN(C)c1ccc(-c2cc(-c3ccc(Nc4nc(Nc5ccc(Cl)cc5)nc(Nc5ccc(Cl)cc5)n4)cc3)no2)cc1

>  <group>
n

$$$$
>  <compound>
CN(C)CCCNC1=C(Cl)C(=O)c2ccccc2C1=O

>  <group>
n

$$$$
>  <compound>
O=C1/C(=C/c2ccc([N+](=O)[O-])cc2)COc2ccc(O)c(O)c21

>  <group>
n

$$$$
>  <compound>
CCOC(=O)Nc1nc2ccc(OCC)cc2s1

>  <group>
n

$$$$

q: # fetch the recorded call for O=C(CN1CCN(c2cc3c(cc2F)c(=O)c(C(=O)N/N=C/c2ccccc2O)cn3C2CC2)CC1)N/N=C\c1ccccc1O here
a: n

q: # fetch the recorded call for NC1CCC(Nc2nc(NCc3ccc(-c4ccco4)nc3)c3ncn(C4CCCC4)c3n2)CC1 (stereo not drawn) here
a: y

====

Record form. Attribute: TGI. Fill in for each entry.
Test system: OVCAR-4 ovarian
test-details: NCI tumour cell line growth inhibition, 48 h

>  <molecule>
CSCCCN(CCCSC)CCCSC

>  <TGI>
> 100 µM

$$$$
>  <molecule>
O=C1NC(N/N=C/c2ccccc2)=N/C1=C\c1ccco1

>  <TGI>
> 100 µM

$$$$
>  <molecule>
c1ccc(C(C2=Nc3cccc4cccc(c34)N2)c2ccccc2)cc1

>  <TGI>
> 100 µM

$$$$
>  <molecule>
O=[N+]([O-])C(=C(Cl)Cl)C(Cl)=C(Cl)Cl

>  <TGI>
0.482 µM

$$$$
>  <molecule>
CCOC(=O)COc1cccc2c1C(=O)CCO2

>  <TGI>
> 100 µM

$$$$
>  <molecule>
O=C(OCc1ccccc1)N(CCCCN(CCCNC(=O)C(F)(F)F)C(=O)OCc1ccccc1)CCCNC(=O)C(F)(F)F

>  <TGI>
> 100 µM

$$$$
>  <molecule>
Cc1ccc2c(c1)[nH]c(=S)n2C=C(C(N)=O)C(N)=O

>  <TGI>
> 100 µM

$$$$
>  <molecule>
O=C(NC(=S)Nc1ccc(Br)cc1)c1ccc2c(c1)Sc1ccccc1S2

>  <TGI>
33.5 µM

$$$$
>  <molecule>
COc1cccc(NC(=O)CC(=O)n2nc(C)c(N=Nc3ccccc3)c2C)c1

>  <TGI>
> 100 µM

$$$$
>  <molecule>
Cc1sc(Nc2ccc(Nc3nc(-c4ccccc4)c(C)s3)cc2)nc1-c1ccccc1

>  <TGI>
> 100 µM

$$$$

Next item in the queue.
OVCAR-4 ovarian TGI of CN1CCc2cc3c(c4c2C1C(O)c1ccccc1-4)OCO3 (stereo unspecified) is 29.5 µM

====

Test system: MOLT-4 leukemia
test-details: NCI tumour cell line growth inhibition, 48 h
Where a SMILES comes first, the peptide text is derived from it. [ ]: non-standard residue; d: D form. The star is where a group is joined. Boc = CC(C)(C)OC(=O)*; Lac = C[CH](O)C(=O)O; OBn = c1ccc(CO*)cc1
Record form. Attribute: TGI. Fill in for each entry.

>  <molecule>
O=C(O)C(Cc1ccccc1)N1C(=O)N/C(=C\c2ccc(F)cc2)C1=O (centres undefined)

>  <metric>
TGI

>  <recorded-result>
> 100 µM

$$$$
>  <molecule>
CC(OC(=O)C(Cc1ccccc1)NC(=O)C(Cc1ccccc1)NC(=O)OC(C)(C)C)C(=O)OCc1ccccc1 (stereo not drawn) (Boc-Phe-Phe-[Lac]-OBn; configuration not given here)

>  <metric>
TGI

>  <recorded-result>
> 100 µM

$$$$
>  <molecule>
O=c1n(CC2CO2)c(=O)n(CC2CO2)n1CC1CO1 (centres undefined)

>  <metric>
TGI

>  <recorded-result>
> 100 µM

$$$$
>  <molecule>
Cc1ccc(S(=O)(=O)NC(=O)NC(CC(N)=O)C(=O)O)cc1 (centres undefined)

>  <metric>
TGI

>  <recorded-result>
> 100 µM

$$$$
>  <molecule>
NC(=O)c1ccc(C(=O)Nc2ccc([As](=O)(O)O)cc2)cc1

>  <metric>
TGI

>  <recorded-result>
> 100 µM

$$$$

List TGI for every entry below, keeping the order given.
1. COC(=O)[C@@H](C)C[C@H](Cc1ccc(F)cc1)NC(=O)c1csc([C@@H](C[C@H](C(C)C)N(C)C(=O)[C@@H](NC(=O)[C@H]2CCCCN2C)C(C)C)OC(C)=O)n1
2. CC(=O)Oc1c(C)c2c(c3ncccc13)OC(C)C2 (centres undefined)
3. CCOC(=O)Nc1nc2ccc(OCC)cc2s1
4. O=C(C1OC1c1ccc(Cl)cc1)C12CC3CC(CC(C3)C1)C2 (centres undefined)
5. NC(CCCCCCCCCCP(=O)(O)O)C(=O)O (centres undefined)
6. Cc1cc2nc(C(Cl)Cl)nc(-c3ccc(Cl)cc3)n2n1
7. COc1ccc(/C=c2/sc3n(c2=O)C(c2ccccc2)C2(O)CCCCC2N=3)cc1 (centres undefined)

a:
1: > 16.7 µM; 2: 25.9 µM; 3: > 100 µM; 4: 51.9 µM; 5: > 100 µM; 6: > 100 µM; 7: > 12.5 µM

====

System: A498 renal
test-details: NCI tumour cell line growth inhibition, 48 h
Record form. Attribute: TGI. Fill in for each entry.

>  <compound>
COc1ccc(/C=C\c2cc(OC)c3c(c2)OCO3)c(O)c1O

>  <TGI>
31.2 µM

$$$$
>  <compound>
CCOC(=O)COc1cccc2c1C(=O)CCO2

>  <TGI>
> 100 µM

$$$$
>  <compound>
CN(C)c1ccc(C2CC(c3ccc4ccccc4c3O)=NN2)cc1 (stereo not given)

>  <TGI>
66.8 µM

$$$$
>  <compound>
COc1cc2nc(-c3ccc(C(F)(F)F)cc3)cc(OCCCN3CCC(O)CC3)c2cc1OC

>  <TGI>
10.3 µM

$$$$
>  <compound>
NC(N)=Nc1ccc(-c2ccc(N=C(N)N)cc2)cc1

>  <TGI>
> 100 µM

$$$$

List TGI for every entry below, keeping the order given.
1. COc1ccc(-c2cc(-c3ccc(Nc4nc(Nc5ccccc5)nc(Nc5ccc(Cl)cc5)n4)cc3)nc(N)c2C#N)cc1
2. Cc1ccc(N=N/C(=N/NC(=O)c2cc(Cl)ccc2O)c2ccc(N(CCC#N)CCC#N)cc2C)cc1
3. CC1(C)COC(c2ccc(C(F)(F)F)cc2C(O)c2ccc3ccccc3c2)=N1 (stereo not given)
4. CC(=O)OC1COC(n2c(=S)n(-c3ccc(C)cc3)c(=O)c3ccccc32)C(OC(C)=O)C1OC(C)=O (stereo not given)
5. COc1cc2c(c(OC)c1O)-c1ccc(SC)c(=O)cc1C(NC(C)=O)CC2 (stereo not given)

a:
11.1 µM
49.5 µM
> 100 µM
> 100 µM
30.9 µM

====

System: MCF7 breast
test-details: NCI tumour cell line growth inhibition, 48 h
metric: TGI

Check out these entries, answers already filled in.
>  <molecule>
C=C1C[C@@H]2CC[C@@]34CC5O[C@H]6C(O[C@H]7CC[C@H](CC(=O)O[C@@H]8[C@@H](C)[C@@H]9O[C@@H]%10C[C@]%11(C[C@@H]%12O[C@]%13(C[C@H](C)[C@@H]%14O[C@@H]%15CC(C(O)CO)O[C@@H]%15C[C@@H]%14O%13)C[C@H](C)[C@@H]%12O%11)O[C@@H]%10C[C@@H]9O[C@H]8CC8O[C@@H](CC[C@@H]1O2)C[C@@H](C)C8(O)CO)O[C@@H]7[C@@H]6O3)[C@H]5O4 (stereo partly drawn)

>  <tested-system>
MCF7 breast

>  <TGI>
> 1 µM

$$$$
>  <molecule>
CC(=O)Nc1oc(C)c(C)c1S(=O)(=O)c1ccc(Cl)cc1

>  <tested-system>
MCF7 breast

>  <TGI>
> 100 µM

$$$$
>  <molecule>
Cc1ccc(-c2n[nH]c(Cc3nc(-c4ccc(C)cc4)n[nH]3)n2)cc1

>  <tested-system>
MCF7 breast

>  <TGI>
> 100 µM

$$$$

List TGI for every entry below, keeping the order given.
1. CN1Cc2ccccc2S(=O)(=O)n2cccc2C1=O
2. CC1=C(C(=O)Nc2ccc(F)c(Cl)c2)C(c2ccc(Cl)cc2)NC(=O)N1 (stereo not drawn)
3. O=c1ccn([C@@H]2C[C@H]2CO)c(=O)[nH]1

a:
1: > 100 µM; 2: 44.9 µM; 3: > 100 µM

List TGI for every entry below, keeping the order given.
1. CC(=O)[O][Hg][c]1c(N)c(C)cc(C)c1F
2. O=C(Nc1ccc(F)cc1F)c1cc(I)ccc1O

a:
1. 2.99 µM
2. > 100 µM
